- Measured target: Platelet-activating factor receptor (Rattus norvegicus) (UniProt P46002)
- Sequence (P46002 whole entry): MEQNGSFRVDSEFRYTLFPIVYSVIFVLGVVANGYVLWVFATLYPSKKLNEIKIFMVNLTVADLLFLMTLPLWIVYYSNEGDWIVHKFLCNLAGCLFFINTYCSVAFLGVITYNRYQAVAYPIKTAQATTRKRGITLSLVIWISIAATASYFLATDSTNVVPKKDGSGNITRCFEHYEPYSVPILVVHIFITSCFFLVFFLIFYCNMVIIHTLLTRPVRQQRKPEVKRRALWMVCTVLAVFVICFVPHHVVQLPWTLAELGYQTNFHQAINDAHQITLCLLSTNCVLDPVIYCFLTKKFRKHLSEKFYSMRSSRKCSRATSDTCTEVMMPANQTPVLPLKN
- Assay protocol: Dose required to inhibit PAF-induced hypotension (PAF-Antagonistic activity) in normotensive rats by 50%.
- Type: functional
The molecules listed here are annotated with their ID50.

INSERT INTO assay_data (molecule, reported_property, val) VALUES
  ('COc1cc(C(=O)N2CCN(Cc3cccnc3)CC2)cc(OC)c1OC', 'ID50', '> 5 mg/kg');

Query: Requested read-out: ID50. Entry: N#CC(CN1CCN(C(=O)C(c2ccccc2)c2ccccc2)CC1)c1cccnc1 (stereo not drawn)
Reply: > 5 mg/kg

Query: Requested field: ID50. Item: N#CC(c1cccnc1)N1CCC(OC(=O)CC(c2ccccc2)c2ccccc2)CC1 (stereo not drawn)
Reply: > 5 mg/kg

###

- Measured target: Platelet-activating factor receptor (Mus musculus)
- Assay protocol: Oral dose required to inhibit PAF-induced mortality (PAF-Antagonistic activity)in mice by 50%.
- Assay type: functional
- Run parameters: Mus sp.
Measured ID50 of individual entries

Examples from the recorded data:
INSERT INTO assay_data (molecule, val) VALUES
  ('COc1cc(C(=O)N2CCN(Cc3cccnc3)CC2)cc(OC)c1OC', '> 100 mg/kg'),
  ('CC(C#N)(c1cccnc1)N1CCN(C(=O)C(c2ccccc2)c2ccccc2)CC1 (stereo unspecified)', '> 30 mg/kg'),
  ('N#CC(c1cccnc1)N1CCN(C(=O)CN(Cc2ccccc2)Cc2ccccc2)CC1 (stereo unspecified)', '> 10 mg/kg'),
  ('N#CC(c1ccncc1)N1CCN(C(=O)CNC(=O)C(c2ccccc2)c2ccccc2)CC1 (stereo unspecified)', '> 20 mg/kg'),
  ('N#CC(c1cccnc1)N1CCN(C(=O)OCC(c2ccccc2)c2ccccc2)CC1 (stereo unspecified)', '> 30 mg/kg');

Now take the following molecule into account.
Query: Please state recorded ID50 (tested on Platelet-activating factor receptor (Mus musculus)) of "COc1cc(C(=O)N2CCN(C(=O)c3cc(OC)c(OC)c(OC)c3)CC2)cc(OC)c1OC"
Reply: > 100 mg/kg

###

- Measured target: Platelet-activating factor receptor (Mus musculus) (UniProt Q62035)
- Sequence (Q62035 whole entry): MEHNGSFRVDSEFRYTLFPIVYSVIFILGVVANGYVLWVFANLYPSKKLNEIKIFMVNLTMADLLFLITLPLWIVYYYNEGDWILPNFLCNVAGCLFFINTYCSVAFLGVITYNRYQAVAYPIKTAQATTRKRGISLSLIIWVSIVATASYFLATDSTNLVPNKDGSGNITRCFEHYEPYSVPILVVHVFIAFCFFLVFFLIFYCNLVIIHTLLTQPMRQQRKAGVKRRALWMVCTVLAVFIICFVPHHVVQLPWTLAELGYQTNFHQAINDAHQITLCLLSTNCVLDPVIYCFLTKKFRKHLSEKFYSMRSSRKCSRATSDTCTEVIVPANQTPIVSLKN
- Assay protocol: Oral dose required to inhibit PAF-induced mortality (PAF-Antagonistic activity)in mice by 50%.
- Assay type: functional
- Run parameters: Mus sp.
Reported property: ID50 (mg/kg)
# number only, unit mg/kg dropped from output

INSERT INTO assay_data (compound, val) VALUES
  ('N#CC(=C1CCN(C(=O)CC(c2ccccc2)c2ccccc2)CC1)c1cccnc1', 30);

Query: Enter reported ID50 observed with Platelet-activating factor receptor (Mus musculus) (UniProt Q62035) for N#CC(c1cccnc1)N1CCN(C(=O)NC(c2ccccc2)c2ccccc2)CC1 (stereo not drawn)
Reply: 30

###

- Measured target: Platelet-activating factor receptor (Mus musculus)
- Assay protocol: Oral dose required to inhibit PAF-induced mortality (PAF-Antagonistic activity)in mice by 50%.
- Type: functional
- Run parameters: Mus sp.
Reported property: ID50

Query: Consider the molecule shown here: N#CC(c1cccnc1)N1CCN(C(=O)/C(=C/c2ccccc2)c2ccccc2)CC1 (stereo not given) What is its recorded ID50?
Reply: > 20 mg/kg

Query: Please report the recorded ID50 for N#Cc1cccc(C(C#N)N2CCN(C(=O)CC(c3ccccc3)c3ccccc3)CC2)c1 (stereo not given) .
Reply: > 30 mg/kg

Query: Given N#CC(c1cccnc1)N1CCN(C(=O)CNCC(c2ccccc2)c2ccccc2)CC1 (stereo not given) , state its recorded ID50.
Reply: > 10 mg/kg

Query: Given N#CC(c1cccnc1)N1CCN(CC(=O)NCCC(c2ccccc2)c2ccccc2)CC1 (stereo not given) , state its recorded ID50.
Reply: > 30 mg/kg

Query: // returns reported ID50 for input N#CC(c1cccc(C(F)(F)F)c1)N1CCN(C(=O)CC(c2ccccc2)c2ccccc2)CC1 (stereo not given)
Reply: > 30 mg/kg

Values from ChEMBL document CHEMBL1125344
